# System: Beet Armyworm (Spodoptera exigua)
# method.notes: Bioassay on Beet Armyworm (BAW), 128-well diet tray assay
# Type: in vivo
# test.conditions: percent mortality of second instar larvae, 50 μg/cm^2 on artificial diet, five to seven days, 25° C.; Table 3

molecule	BAW Rating
O=C(NCc1ccc(/C=C/C(c2cc(Cl)c(Cl)c(Cl)c2)C(F)(F)F)cc1)C1CC1 (stereo not shown) [CC5]	A (50-100)
N#Cc1cc(/C=C/C(c2cc(Cl)c(Cl)c(Cl)c2)C(F)(F)F)ccc1-n1cnc(N)n1 (stereo not shown) [DC41]	A (50-100)
Cc1cc(/C=C/C(c2cc(Cl)cc(Cl)c2)C(F)(F)F)ccc1-n1cncn1 (stereo not shown) [DC62]	A (50-100)

---

# System: Beet Armyworm (Spodoptera exigua)
# method.notes: Bioassay on Beet Armyworm (BAW), 128-well diet tray assay
# Format: in vivo
# test.conditions: percent mortality of second instar larvae, 50 μg/cm^2 on artificial diet, five to seven days, 25° C.; Table 3
test.readout: BAW Rating

compound	test.readout	reported
Cc1cc(/C=C/C(c2cc(Cl)cc(Cl)c2)C(F)(F)F)ccc1C(=O)NCC(=O)NC1CS(=O)(=O)C1 (stereo not shown) [AC81]	BAW Rating	A (50-100)
O=C(NCc1ccc(Cl)nc1)c1ccc(/C=C/C(c2cc(Cl)c(Cl)c(Cl)c2)C(F)(F)F)cc1C(F)(F)F (stereo not shown) [AC36]	BAW Rating	A (50-100)
Cc1cc(/C=C/C(c2cc(Cl)c(Cl)c(Cl)c2)C(F)(F)F)ccc1-n1cncn1 (stereo not shown) [DC63]	BAW Rating	A (50-100)
O=C(NC1CCNCC1)c1ccc(/C=C/C(c2cc(Cl)c(Cl)c(Cl)c2)C(F)(F)F)cc1Br (stereo not shown) [AC114]	BAW Rating	A (50-100)
Cc1cc(/C=C/C(c2cc(Cl)cc(Cl)c2)C(F)(F)F)ccc1C(=O)NCc1cnc(Cl)s1 (stereo not shown) [AC15]	BAW Rating	A (50-100)

Supply reported BAW Rating belonging to this compound: N#Cc1cc(/C=C/C(c2cc(Cl)c(Cl)c(Cl)c2)C(F)(F)F)ccc1-n1cnc([N+](=O)[O-])n1 (stereo not shown) [DC40]
A (50-100)

Supply reported BAW Rating belonging to this compound: Cc1cc(/C=C/C(c2cc(Cl)cc(Cl)c2)C(F)(F)F)ccc1C(=O)NC(C)(C)c1ccccn1 (stereo not shown) [AC16]
A (50-100)

Supply reported BAW Rating belonging to this compound: O=C(NC1CCCc2cc(/C=C/C(c3cc(Cl)c(Cl)c(Cl)c3)C(F)(F)F)ccc21)C1CC1 (stereo not shown) [BC7]
A (50-100)

Supply reported BAW Rating belonging to this compound: O=C(NCc1ccc(/C=C/C(c2cc(Cl)c(Cl)c(Cl)c2)C(F)(F)F)cc1Br)C1CC1 (stereo not shown) [CC26]
A (50-100)

---

# Test system: Beet Armyworm (Spodoptera exigua)
# method.notes: Bioassay on Beet Armyworm (BAW), 128-well diet tray assay
# Type: in vivo
# test.conditions: Spodoptera exigua, 168 h; percent mortality of second instar larvae, 50 μg/cm^2 on artificial diet, five to seven days, 25° C.; Table 3; read-out: BAW Rating
Quick reference: pest or weed control at 50 µg/cm2, 50 µg/cm2 of the listed items.

Examples with their reported pest or weed control at 50 µg/cm2, 50 µg/cm2 follow.
compound	reported
CN(C)NC(=O)CNC(=O)c1ccc(/C=C/C(c2cc(Cl)c(Cl)c(Cl)c2)C(F)(F)F)cc1Br (centres unmarked) [AC112]	50 to 100%
O=C(NCc1ccc(Cl)nc1)c1ccc(/C=C/C(c2cc(Cl)cc(Cl)c2)C(F)(F)F)cc1Br (centres unmarked) [AC46]	50 to 100%
Cc1cc(/C=C/C(c2cc(Cl)cc(Cl)c2)C(F)(F)F)ccc1C(=O)NCc1cccnc1 (centres unmarked) [AC14]	50 to 100%
CCc1cc(/C=C/C(c2cc(Cl)c(F)c(Cl)c2)C(F)(F)F)ccc1C(=O)NCc1cccnc1Cl (centres unmarked) [AC76]	50 to 100%
CCNC(=S)NC1CCc2cc(/C=C/C(c3cc(Cl)c(Cl)c(Cl)c3)C(F)(F)F)ccc21 (centres unmarked) [BC2]	50 to 100%

Under Beet Armyworm (Spodoptera exigua), report pest or weed control at 50 µg/cm2, 50 µg/cm2 for Cc1cc(/C=C/C(c2cc(Cl)cc(Cl)c2)C(F)(F)F)cnc1C(=O)NCc1ccc(Cl)nc1 (centres unmarked) [AC60]
50 to 100%

Under Beet Armyworm (Spodoptera exigua), report pest or weed control at 50 µg/cm2, 50 µg/cm2 for N#Cc1cc(/C=C/C(c2ccc(Cl)c(Cl)c2)C(F)(F)F)ccc1-n1cncn1 (centres unmarked) [DC28]
50 to 100%

Under Beet Armyworm (Spodoptera exigua), report pest or weed control at 50 µg/cm2, 50 µg/cm2 for N#Cc1cc(/C=C/C(c2cc(Cl)c(Cl)c(Cl)c2)C(F)(F)F)ccc1-n1cncn1 (centres unmarked) [DC31]
50 to 100%

Under Beet Armyworm (Spodoptera exigua), report pest or weed control at 50 µg/cm2, 50 µg/cm2 for CNC(=S)NC1CCc2cc(/C=C/C(c3cc(Cl)c(Cl)c(Cl)c3)C(F)(F)F)ccc21 (centres unmarked) [BC1]
50 to 100%

Under Beet Armyworm (Spodoptera exigua), report pest or weed control at 50 µg/cm2, 50 µg/cm2 for Cc1cc(/C=C/C(c2cc(Cl)c(Cl)c(Cl)c2)C(F)(F)F)ccc1C(=O)NC1CS(=O)(=O)C1 (centres unmarked) [AC25]
50 to 100%

# credit: patent US9510592B2
